# half-life at 1 µM listing for each entry below
Assay: Metabolic stability in mouse hepatocytes
Assay type: in vitro ADME
Conditions: mouse, pooled mouse hepatocytes; 1 μM, 0.25 × 10^6 cells/mL; read-out: Mouse Hepatocytes t1/2
MEASURED QUANTITY: half-life at 1 µM

molecule="C=CC1CC1(NC(=O)C12CC(NC(=O)c3ccc(C#N)cc3)(C1)C2)C(=O)Nc1ccc(C(=O)Nc2ccc(C(=O)Nc3ccc(C(=O)O)cc3)c(O)c2OC(C)C)cc1 (stereo not drawn)" measured_quantity="half-life at 1 µM" assay_result="0.683 h"
molecule=CC(C)Oc1c(NC(=O)c2ccc(NC(=O)[C@H](CC(N)=O)NC(=O)c3ccc(NC(=O)c4ccc(C#N)cc4)cc3)cc2)ccc(C(=O)Nc2ccc(C(=O)O)cc2)c1O measured_quantity="half-life at 1 µM" assay_result="1.57 h"
molecule=CO[C@H](C(N)=O)[C@H](NC(=O)c1ccc(NC(=O)c2ccc(C#N)cc2)cc1)C(=O)Nc1ccc(C(=O)Nc2ccc(C(=O)Nc3ccc(C(=O)O)cc3)c(O)c2OC(C)C)cc1 measured_quantity="half-life at 1 µM" assay_result="> 3 h"

----------
Heads up, these compounds all have pIC50 values measured for human DNA topoisomerase IIα (TOP2A) (Homo sapiens).
pIC50: −log10 of the molar value.
MEASURED QUANTITY: pIC50

compound="C=CC1CC1(NC(=O)C12CC(NC(=O)c3ccc(C#N)cc3)(C1)C2)C(=O)Nc1ccc(C(=O)Nc2ccc(C(=O)Nc3ccc(C(=O)O)cc3)c(O)c2OC(C)C)cc1 (centres unmarked) [Cysto-180]" measured_quantity=pIC50 assay_result=4.91
compound="CO[C@H](C(N)=O)[C@H](NC(=O)c1ccc(NC(=O)c2ccc(C#N)cc2)cc1)C(=O)Nc1ccc(C(=O)Nc2ccc(C(=O)Nc3ccc(C(=O)O)cc3)c(O)c2OC(C)C)cc1 [CN-861-2]" measured_quantity=pIC50 assay_result=5.20

Hey, just so you know, these numbers are from paper PMC13267113.
